Target: T1, Nrd1 307-491 G344A (Saccharomyces cerevisiae, UniProt P53617 307-491, G344A)
T1 sequence: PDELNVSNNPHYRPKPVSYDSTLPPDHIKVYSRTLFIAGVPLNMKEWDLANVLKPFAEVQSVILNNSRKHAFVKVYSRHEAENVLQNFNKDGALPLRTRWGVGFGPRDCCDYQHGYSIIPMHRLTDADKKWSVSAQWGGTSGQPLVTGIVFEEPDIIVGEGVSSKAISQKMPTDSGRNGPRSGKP
Experiment: fluorescence anisotropy; FA: 10 nM RNA, 50 mM sodium phosphate pH 8, 150 mM NaCl, 10 mM beta-mercaptoethanol, 20 C (protein stock in 300 mM NaCl); NMR: same buffer with 300 mM NaCl, 20
Conditions: protein: recombinant; tags: C-terminal His6; label: 5' fluorescein or TAMRA (FA); unlabeled (NMR)
pKd: −log10 of the molar value.

| binder | pKd |
| --- | --- |
| GUAA (ssRNA) | 4.09 |
